Target: T1, hIL-18Rα ECD-Fc fusion protein (human, UniProt Q13478 22-329)
T1 construct: extracellular domain; captured on Protein A sensor
T1 sequence (looked up): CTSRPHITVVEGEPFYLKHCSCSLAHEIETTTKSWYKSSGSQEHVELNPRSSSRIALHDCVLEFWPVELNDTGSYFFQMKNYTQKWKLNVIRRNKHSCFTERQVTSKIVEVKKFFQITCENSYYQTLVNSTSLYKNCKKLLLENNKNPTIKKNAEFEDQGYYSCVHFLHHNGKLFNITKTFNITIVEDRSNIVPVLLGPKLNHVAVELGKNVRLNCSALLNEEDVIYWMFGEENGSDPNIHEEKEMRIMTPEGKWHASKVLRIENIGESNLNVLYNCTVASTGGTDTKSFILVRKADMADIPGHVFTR
Test: BLI (Octet RED96), hIL-18Rα ECD-Fc on Protein A sensor; also: test concentration or dose not given here
Reported Response (nm) by item:

- BINDER: "IL-18 variant polypeptide WM8 (ligand, soluble, E. coli-made) YFPKLRSKLSVIRNLNDQVLFIDQGNRPLFEDMTDSDCRDNAPRTIFIISMYKDSQPRGMAVTISVKCEKISTLSCENKIISFKEMNPPDSIKDTKSDIIFFQRSVPGHDNKMQFESSSYEGYFLACEKERDLFKLILKKEDELGDRSIMFTVQNED"
  Response (nm): "< 0.02 nm"
- BINDER: "IL-18 variant polypeptide M13 (ligand) YFPKLKSKLSVIRNLNDQVLFIDQGNRPLFEDMTDSDCRDNAPRTIFIISMYKQSIWRGMAVTISVKCEKISTLSCENKIISFKEMNPPDNIKDTKSDIIFFQRSVPGHDNKMQFESSSYEGYFLACEKERDLFKLILKKEDELGDRSIMFTVQNED"
  Response (nm): "0.31 nm"

// below: Response (nm) requested for another binder
INPUT: May I ask what Response (nm) has been recorded for IL-18 variant polypeptide M37 (ligand) YFPKLGSKLSVIRNLNDQVLFIDQGNRPLFEDMTDSDCRDNAPRTIFIISMYKQSVWRGMAVTISVKCEKISTLSCENKIISFKEMNPPDNIKDTKSDIIFFQRSVPGHDNKMQFESSSYEGYFLACEKERDLFKLILKKEDELGDRSIMFTVQNED ?
OUTPUT: 0.222 nm
